measurement notes: chemical genetic growth profiling, strain panel (AID 1159580);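 also: tested at 20 µM; growth read once vehicle control cultures reached saturation at 30 °C; 1 = growth at the plate median or of vehicle wells; lower values mean less growth of the strain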
condition description: S. cerevisiae deletion strains, growth OD, locus YJL115W, strain asf1, active compounds read low
In all, about 5,500 compounds went through this assay and about 2,000 (36%) were called active. Another 18% or so got no clear call; they are omitted. The list shows a part of the results.
measured attribute: normalized growth
Please reply with the number alone, leaving off any unit.

**Q:** Which value of normalized growth has been reported for COc1ccc(C2CNC(=O)C2)cc1OC1CCCC1 (stereo not given) in the records?
**A:** 1.01

**Q:** What does the data say about its normalized growth? Entry: CN1C2CCC1CC(OC(c1ccccc1)c1ccccc1N)C2 (stereo not given)
**A:** 0.997

**Q:** Which normalized growth value is on record for CN1C2C[C@H](OC(=O)[C@H](CO)c3ccccc3)C[C@H]1[C@@H](O)C2 ?
**A:** 1.01

**Q:** Data request, read-out normalized growth, for CC[C@@H](C(=O)C(C)[C@@H](O)[C@H](C)CCc1ccc(C)c(O)c1C(=O)O)C1OC(CC)(C2CC[C@](O)(CC)[C@H](C)O2)C[C@@H]1C (stereo not given in full)
**A:** 1.06

**Q:** Look up normalized growth for this molecule: COc1ccc(C(=O)CC(=O)O)c2c1C=CC(C)(C)O2
**A:** 1

**Q:** What does the record list as normalized growth for C=C1C2CC[C@@]3(C)[C@H](c4ccoc4)OC(=O)C[C@]13O[C@H]1CC(=O)C(C)(C)[C@H](C(OC(C)=O)C(=O)OC)[C@@]21C (stereo not given in full) ?
**A:** 1.01

**Q:** Quick one: normalized growth of CN(C)CCCC1(c2ccc(F)cc2)OCc2cc(C#N)ccc21 (stereo not given) ?
**A:** 0.985

**Q:** normalized growth lookup needed for N=c1ccn2c(n1)OC1C(O)C(CO)OC12 (stereo not given) , thanks.
**A:** 1.01

**Q:** Returns the measured normalized growth for the input molecule. Input: C#CCN(C)Cc1ccccc1
**A:** 1.01

**Q:** Given the entry COC(=O)[C@@H]1OC(=O)C2OC23[C@@]1(C)CCC1[C@]2(C)C(C[C@H](O)[C@]13C)C(C)(C)[C@H](OC(C)=O)C[C@@H]2OC(C)=O (stereo not given in full) , report its measured normalized growth.
**A:** 1.02

====

measurement notes: chemical genetic growth profiling, strain panel (AID 1159580)
condition description: S. cerevisiae deletion strains, growth OD, locus YMR231W, strain pep5, active compounds read low
The whole screen tested about 5,500 compounds, of which about 2,000 (36%) were called active. Another 18% or so got no clear call; they are omitted. This is one part of the list.
measured attribute: normalized growth
Format: numeric value only, no unit, no commentary.

**Q:** Param item = CN(C)CCCC1(c2ccc(F)cc2)OCc2cc(C#N)ccc21 (stereo not given) ; retrieve measured normalized growth.
**A:** 0.984

**Q:** # input molecule: CCCCC/C=C/CCC(=O)N[C@H]1[C@H](Oc2c3cc4cc2Oc2ccc(cc2Cl)[C@@H](O[C@@H]2O[C@H](CO)[C@@H](O)[C@H](O)[C@H]2NC(C)=O)[C@@H]2NC(=O)[C@H](NC(=O)[C@@H]4NC(=O)[C@H]4NC(=O)C(Cc5ccc(c(Cl)c5)O3)NC(=O)[C@H](N)c3ccc(O)c(c3)Oc3cc(O)cc4c3)c3ccc(O)c(c3)-c3c(OC4O[C@H](CO)[C@@H](O)[C@H](O)[C@@H]4O)cc(O)cc3[C@@H](C(=O)O)NC2=O)O[C@H](CO)[C@@H](O)[C@@H]1O (stereo not given in full) ; wanted: its normalized growth
**A:** 0.991

**Q:** # lookup: normalized growth of Cc1ccc(C(=O)Nc2ccc(S(=O)(=O)O)c3cc(S(=O)(=O)O)cc(S(=O)(=O)O)c23)cc1NC(=O)c1cccc(NC(=O)Nc2cccc(C(=O)Nc3cc(C(=O)Nc4ccc(S(=O)(=O)O)c5cc(S(=O)(=O)O)cc(S(=O)(=O)O)c45)ccc3C)c2)c1
**A:** 1.01

**Q:** Which normalized growth value belongs to Clc1ccc(C(c2ccc(Cl)cc2)C(Cl)(Cl)Cl)cc1 ?
**A:** 1.01

**Q:** What value of normalized growth has been recorded for this entry: COc1ccc(C(c2ccc(OC)cc2)C(Cl)(Cl)Cl)cc1
**A:** 1

====

Assign normalized growth to each entry below.
measurement notes: chemical genetic growth profiling, strain panel (AID 1159580);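 also: tested at 20 µM; growth read once vehicle control cultures reached saturation at 30 °C; 1 = growth at the plate median or of vehicle wells; lower values mean less growth of the strain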
condition description: S. cerevisiae deletion strains, growth OD, locus YDR318W, strain mcm21, active compounds read low
About 2,000 (36%) of roughly 5,500 compounds were called active. About 18% were inconclusive and are not listed. The list shows a part of the results.

**Q:** // query normalized growth value for entry CCC(C)C(=O)OC1CC2(C)C(c3ccoc3)OC(=O)CC23OC2(C)OC34C(OC(=O)C(C)C)C3(O)C(OC(=O)C5(C)OC5C)C5(C)CC3(O)C(C)(C5C(=O)OC)C14O2 (stereo unspecified)
**A:** 1.03 (inactive)

**Q:** Bench note: what normalized growth did COC(=O)C[C@H]1C2(C)CC34OC5(C)O[C@@]6([C@H](OC(C)=O)C(OC(C)=O)[C@]7(C)C(/C(=C(/O)C(C)C)C(=O)O[C@H]7c7ccoc7)[C@@]6(O5)[C@H](OC(C)=O)[C@@]3(O)C2OC(=O)C(C)C)[C@]14C (stereo partly specified) show?
**A:** 0.994 (inactive)

**Q:** If you can, please state the reported normalized growth value of O=C(O)CCCc1ccccc1 .
**A:** 0.986 (inactive)

**Q:** If you can, please state the reported normalized growth value of COC(=O)[C@@H]1OC(=O)C2OC23[C@@]1(C)CCC1[C@]2(C)C(C[C@H](O)[C@]13C)C(C)(C)[C@H](OC(C)=O)C[C@@H]2OC(C)=O (stereo partly specified) .
**A:** 1.01 (inactive)

**Q:** normalized growth lookup needed for C[C@@H]1CC(Cl)CC[C@H]1C(=O)OC(C)(C)C (stereo partly specified) , thanks.
**A:** 0.988 (inactive)

**Q:** # query: normalized growth of entry COC(=O)CC1C2(C)CC34OC5(C)OC6(C7/C(=C(/O)C(C)C)C(=O)OC(c8ccoc8)C7(C)C(OC(=O)C(C)C)C(OC)C6(O5)C13C)C(OC)C4(OC)C2OC(C)=O (stereo unspecified)
**A:** 0.988 (inactive)

====

measurement notes: chemical genetic growth profiling, strain panel (AID 1159580);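 also: tested at 20 µM; growth read once vehicle control cultures reached saturation at 30 °C; 1 = growth at the plate median or of vehicle wells; lower values mean less growth of the strain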
condition description: S. cerevisiae deletion strains, growth OD, locus YNR049C, strain mso1, active compounds read low
Screen size: about 5,500 compounds; about 2,000 (36%) were called active. Another 18% or so got no clear call; they are omitted. Some of the results follow.
Consider the following compounds; for each one, report its normalized growth.
Write the value as a bare number.

**Q:** Using the record for C=C1C2CC[C@@]3(C)[C@H](c4ccoc4)OC(=O)C[C@]13O[C@H]1CC(=O)C(C)(C)[C@H](C(OC(C)=O)C(=O)OC)[C@@]21C (some centres undefined) , report its normalized growth.
**A:** 1.01

**Q:** Fill in: normalized growth of CC(=O)Oc1cc(OC(C)=O)c2c(c1)O[C@H](c1ccc(OC(C)=O)c(OC(C)=O)c1)[C@H](OC(C)=O)C2 is ___
**A:** 1

**Q:** # normalized growth lookup, item O=C(Oc1cc(OC(=O)c2ccccc2)c2c(c1)O[C@H](c1ccc(OC(=O)c3ccccc3)c(OC(=O)c3ccccc3)c1)[C@@H](OC(=O)c1ccccc1)C2)c1ccccc1
**A:** 0.991

**Q:** If you can, please state the reported normalized growth value of O=C1CCC(N2C(=O)c3ccccc3C2=O)C(=O)N1 (centres undefined) .
**A:** 1.01

====

measurement notes: chemical genetic growth profiling, strain panel (AID 1159580);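 also: tested at 20 µM; growth read once vehicle control cultures reached saturation at 30 °C; 1 = growth at the plate median or of vehicle wells; lower values mean less growth of the strain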
condition description: S. cerevisiae deletion strains, growth OD, locus YGR135W, strain pre9, active compounds read low
The campaign covered roughly 5,500 compounds. About 2,000 (36%) were called active. About 18% were inconclusive and are not listed. Some of the results follow.
measured attribute: normalized growth
// return just the number, without any unit appended

**Q:** Look at this compound and give its reported normalized growth. CC(=O)S[C@@H]1CC2=CC(=O)CC[C@]2(C)[C@H]2CC[C@@]3(C)[C@@H](CC[C@@]34CCC(=O)O4)C12 (stereo not given in full)
**A:** 1.02

**Q:** What normalized growth value was documented for this compound, C[C@]12CCC(=O)C=C1C=CC1C2CC[C@@]2(C)C1CC[C@@]21CCC(=O)O1 (stereo not given in full) ?
**A:** 0.936

**Q:** Look up normalized growth: Clc1ccc(C(OCCN2CCCCC2)c2ccccc2)cc1 (stereo not given)
**A:** 0.951

**Q:** Param item = CCCCCCCCC(=O)NCc1ccc(O)c(OC)c1 ; retrieve measured normalized growth.
**A:** 0.987

**Q:** Would you kindly share the measured normalized growth for O=C1NCC2(CCN(CCc3ccccc3)CC2)O1 ?
**A:** 0.999
